Target: T1, human GLP-2 receptor (human, UniProt O95838 1-553)
T1 sequence (looked up): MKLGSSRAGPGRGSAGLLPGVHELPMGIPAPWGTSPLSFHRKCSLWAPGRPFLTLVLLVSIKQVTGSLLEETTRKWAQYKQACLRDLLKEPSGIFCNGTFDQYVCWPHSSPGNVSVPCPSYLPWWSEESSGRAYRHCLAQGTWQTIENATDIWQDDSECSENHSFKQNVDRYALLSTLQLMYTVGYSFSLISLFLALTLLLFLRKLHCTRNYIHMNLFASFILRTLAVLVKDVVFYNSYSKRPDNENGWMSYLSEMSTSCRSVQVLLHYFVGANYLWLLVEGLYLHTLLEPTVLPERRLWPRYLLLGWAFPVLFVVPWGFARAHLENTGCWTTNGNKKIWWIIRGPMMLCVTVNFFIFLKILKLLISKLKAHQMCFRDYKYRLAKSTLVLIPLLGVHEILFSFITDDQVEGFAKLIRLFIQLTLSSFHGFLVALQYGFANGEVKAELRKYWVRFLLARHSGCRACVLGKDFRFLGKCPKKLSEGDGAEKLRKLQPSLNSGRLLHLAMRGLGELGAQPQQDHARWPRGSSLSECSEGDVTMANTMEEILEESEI
Assay: cell-based or functional assay
recorded-endpoint: Emax (10 µM), % of native GLP-2 (%)
// return numeric value only (unit: %, not printed)

{"binder": "HAEGTFISDYSTILDNIHQQDFINWLIQTKITD [GIP-GLP-2 co-agonist 8]", "reading": 22}
{"binder": "HAEGTFISDYSTILDNLAARDFINWLIQTKGKK [GIP-GLP-2 co-agonist 10]", "reading": 77}

Next binder, please.
[Q] Input HADGTFSSDYSTILDNLAARDFINWLIQTKITD [GIP-GLP-2 co-agonist 13] , output reported Emax (10 µM), % of native GLP-2.
[A] 99

Measured values drawn from patent US20200392198A1 for this set.
